Subject Of Test: Neu5Ac(a2-6)Gal(b1-4)GlcNAc(b1-3)Gal(b1-4)GlcNAc(b1-3)[Neu5Ac(a2-6)Gal(b1-4)GlcNAc(b1-3)Gal(b1-4)GlcNAc(b1-6)]GalNAc
Procedure Details: glycan array binding signal (z-score within array); higher = stronger binding
Conditions: glycan notation: IUPAC condensed, linker removed
The sample as a whole holds a higher share of the strongest signals than the screen did.
# glycan array binding signal (z-score) listing for each entry below
Form: value (number only, do not type unit).

Check out these entries, answers already filled in.
| Binder | glycan array binding signal (z-score) |
| --- | --- |
| Protein L(B1-B4) (Finegoldia magna), Q51912 (protein) KEETPETPETDSEEEVTIKANLIFANGSTQTAEFKGTFEKATSEAYAYADTLKKDNGEYTVDVADKGYTLNIKFAGKEKTPEEPKEEVTIKANLIYADGKTQTAEFKGTFEEATAEAYRYADALKKDNGEYTVDVADKGYTLNIKFAGKEKTPEEPKEEVTIKANLIYADGKTQTAEFKGTFEEATAEAYRYADLLAKENGKYTVDVADKGYTLNIKFAGKEKTPEEPKEEVTIKANLIYADGKTQTAEFKGTFAEATAEAYRYADLLAKENGKYTADLEDGGYTINIRFAG | 2.86 |
| EfCBM33A (Enterococcus faecalis), Q838S1 (protein) MKKSLLTIVLAFSFVLGGAALAPTVSEAHGYVASPGSRAFFGSSAGGNLNTNVGRAQWEPQSIEAPKNTFITGKLASAGVSGFEPLDEQTATRWHKTNITTGPLDITWNLTAQHRTASWDYYITKNGWNPNQPLDIKNFDKIASIDGKQEVPNKVVKQTINIPTDRKGYHVIYAVWGIGDTVNAFYQAIDVNIQ | 0.687 |
| F17-L (Escherichia coli) (protein) GPDDYVPSQIAVNTSTLPGVVIGPADAHTYPRVIGELAGTSNQYVFNGGAIALMRGKFTPALPKIGSITYTFHQGNSRDSSDFDIYDIGVSGLGIIIGMAGYWPATPLVPINSSGIYIDPVGANTNPNTYNGATASFGARLFVAFVATGRLPNGYITIPTRQLGTILLEAKRTSLNNKGLTAPVMLNGGRIQVQSQTHHHHHH | -0.014 |

Please turn your attention to the following entry.
Task: Which glycan array binding signal (z-score) reading was recorded for the binder Pwp2 (Candida glabrata) (protein) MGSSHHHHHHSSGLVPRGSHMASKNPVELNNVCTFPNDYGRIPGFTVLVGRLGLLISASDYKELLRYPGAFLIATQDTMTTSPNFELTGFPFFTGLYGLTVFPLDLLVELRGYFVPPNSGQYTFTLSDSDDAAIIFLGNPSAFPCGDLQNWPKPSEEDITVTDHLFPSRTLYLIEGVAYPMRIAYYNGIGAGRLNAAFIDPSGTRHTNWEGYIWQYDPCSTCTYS ?
Output: -0.059

Measured values drawn from the supplement of paper PMC8728848 for this set.
